- assay.system: T1, FGFR1c/KLB: ectodomain of human FGFR1c fused to Fc, with human beta-klotho (human, UniProt P11362 22-376; Q86Z14 53-996)
- T1 construct: ectodomain of human fibroblast growth factor receptor 1, c-isoform (FGFR1c); human beta-klotho (KLB, printed there as BKL) protein; FGFR-Fc on Protein A acceptor beads, KLB added in solution; the bought KLB is, as I recall, the extracellular domain; also called FGF-receptor complex; source: bought: R&D Systems (both proteins)
- assay.explanation: AlphaScreen or HTRF; competition: biotinylated FGF21 on streptavidin donor beads, ectodomain of human FGFR1c, FGFR2c, FGFR3c or FGFR4 fused to Fc on Protein A acceptor beads, human KLB protein added; signal inhibited by increasing doses of FGF21 analog; 0.1% ovalbumin; indirect measure of binding affinity, reported as IC50
- assay.conditions: both partners purified
Entries and their pIC50 values follow.
Lab note: jot the number down without any unit.

Use these answered entries as a reference point.
binder	test.readout	meas.value
stabilized backbone (4): -1A, 121Q, 168L FGF21 (ligand, human, single amino acid N-terminal extension (-1A), giving the N-terminus AHPIP; human FGF21, mature 181-residue hormone; numbers count on: the mature protein; also called stabilized backbone of 15; source: E. coli BL21 (DE3)-derived strain, inclusion bodies, purified (Q Sepharose FF, Phenyl FF, Source 30Q where needed)) AHPIPDSSPLLQFGGQVRQRYLYTDDAQQTEAHLEIREDGTVGGAADQSPESLLQLKALKPGVIQILGVKTSRFLCQRPDGALYGSLHFDPEACSFRELLLEDGYNVYQSEAHGLPLHLPGQKSPHRDPAPRGPARFLPLPGLPPALPEPPGILAPQPPDVGSSDPLSLVGPSQGRSPSYAS	pIC50	6.18
FGF21 analog 18 (-1A, 121Q, 168L, 181C; C18 fatty diacid on 181C) (ligand, human, C18 diacid gGlu-OEG-OEG-C2DA-Ac side chain on Cys181, single amino acid N-terminal extension (-1A), giving the N-terminus AHPIP; human FGF21, mature 181-residue hormone; numbers count on: the mature protein; source: E. coli BL21 (DE3)-derived strain, inclusion bodies, purified; side chain conjugated to the Cys, purified by anion exchange (MonoQ)) AHPIPDSSPLLQFGGQVRQRYLYTDDAQQTEAHLEIREDGTVGGAADQSPESLLQLKALKPGVIQILGVKTSRFLCQRPDGALYGSLHFDPEACSFRELLLEDGYNVYQSEAHGLPLHLPGQKSPHRDPAPRGPARFLPLPGLPPALPEPPGILAPQPPDVGSSDPLSLVGPSQGRSPSYAC	pIC50	5.72

As a next step, examine the binder that follows.
*Q* # query: pIC50 of entry zalfermin (NNC0194-0499, 15) (ligand, human, C18 diacid gGlu-OEG-OEG-C2DA-Ac side chain on Cys180, single amino acid N-terminal extension (-1Ala), giving the N-terminus AHPIP; human FGF21, mature 181-residue hormone; numbers count on: the mature protein; 20.3 kDa; also called FGF21 analog 15; source: E. coli BL21 (DE3)-derived strain, inclusion bodies, purified; side chain conjugated to the Cys, purified by anion exchange (MonoQ)) AHPIPDSSPLLQFGGQVRQRYLYTDDAQQTEAHLEIREDGTVGGAADQSPESLLQLKALKPGVIQILGVKTSRFLCQRPDGALYGSLHFDPEACSFRELLLEDGYNVYQSEAHGLPLHLPGQKSPHRDPAPRGPARFLPLPGLPPALPEPPGILAPQPPDVGSSDPLSLVGPSQGRSPSYCS
*A* 6.13
